FYI, the data here is from ChEMBL document CHEMBL1201862.

# Tested on: SNB-75
# EXPERIMENTAL_PROTOCOL: NCI tumour cell line growth inhibition, 48 h
Calls of active or inactive are those of the source. Rule as the data show it: active = GI50 up to about 1.1 µM and inactive = higher.
# maps each entry to its GI50

Here's what some known entries look like.
| COMPOUND | GI50 |
| --- | --- |
| CCOC(OC1=C(C#N)CCCC1)C(C)[Se]c1ccccc1 (stereo unspecified) | 36.9 µM (inactive) |
| S=C(N/N=C(\c1ccccc1)c1ccccn1)NC1CCCCC1 | 65.3 µM (inactive) |
| CCCCCCCCCC[C@H](O)[C@H]1CC[C@H]([C@H]2CC[C@H]([C@H](O)CC[C@H](O)CCCCCCC[C@@H](O)CC3=C[C@H](C)OC3=O)O2)O1 | 19.1 µM (inactive) |
| Cc1cn(CC2=NCC(C)(C)CN2)c(=O)[nH]c1=O | > 100 µM (inactive) |
| Oc1cc2c3c(c1)c1cc4c(cc1c[n+]3CC2)OCO4 | 2.25 µM (inactive) |
| CN1CN(c2ccccc2)C2(CCNCC2)C1=O | > 100 µM (inactive) |
| COc1cc(C2c3c(ccc4ccccc34)C(=O)C3CCC(=O)N32)cc(OC)c1OC (stereo unspecified) | > 50 µM (inactive) |
| CC1C2Cc3ccc(O)cc3C1(C)CCN2C (stereo unspecified) | 86.7 µM (inactive) |

The recorded GI50 for N#Cc1ccc(C2Oc3ccc(Cl)cc3C=C2[N+](=O)[O-])cc1 (stereo unspecified) is 1.47 µM (inactive)

The recorded GI50 for CC1(C)CCC[C@]2(C)[C@@H]1CC[C@@]13O[C@@H]1C1=C(CO)C(=O)O[C@]14O[C@@H]4[C@@H]23 is 15.2 µM (inactive)

The recorded GI50 for Cc1ccc2[nH]c(=N/c3ccccc3C)/c(=N\c3ccccc3C)[nH]c2c1 is 34.7 µM (inactive)

The recorded GI50 for Cc1ccc(NC(=O)OCC(COc2ccc(Cl)cc2)OC(=O)Nc2ccc(C)cc2)cc1 (stereo unspecified) is 14.5 µM (inactive)

The recorded GI50 for COC(=O)/C=C\C(C#N)(C#N)/N=C/c1ccc(Br)cc1 is 15 µM (inactive)

The recorded GI50 for CCc1cccc(C)c1NC(=O)CC1C(=O)Nc2ccccc2[S+]1[O-] (stereo unspecified) is 33.5 µM (inactive)

The recorded GI50 for N#C/N=C1\NCCC(=O)N1CCc1c[nH]c2ccccc12 is > 100 µM (inactive)

The recorded GI50 for COc1cccc(N(CN2C(=O)CCC2OC)C(C)=O)c1 (stereo unspecified) is > 100 µM (inactive)

* * *

# System: DMS-114
# EXPERIMENTAL_PROTOCOL: NCI tumour cell line growth inhibition, 48 h
The source made the active and inactive calls. Cut-off read from the data, not from the text of the source: active = GI50 up to about 1.1 µM and inactive = higher.
OUTCOME_MEASURE: GI50

| COMPOUND | OBSERVED |
| --- | --- |
| O=C(CC1(O)C(=O)Nc2c(Cl)cc(Cl)cc21)c1ccc([N+](=O)[O-])cc1 (stereo not drawn) | 23.8 µM (inactive) |

Now examine the next entry.
The recorded GI50 for O=c1cccccc1NCCCCCCCCNc1cccccc1=O is 1.77 µM (inactive)

* * *

# Test system: M19-MEL
# EXPERIMENTAL_PROTOCOL: NCI tumour cell line growth inhibition, 48 h
The source made the active and inactive calls. Rule as the data show it: active = GI50 up to about 1.1 µM and inactive = higher.
OUTCOME_MEASURE: GI50

Here's what some known entries look like.
| COMPOUND | OUTCOME_MEASURE | OBSERVED |
| --- | --- | --- |
| C#Cc1cccc(N2C(=O)c3c(c(-c4ccccc4)c(-c4ccc(Cc5ccc(-c6c(-c7ccccc7)c7c(c(-c8ccccc8)c6-c6ccccc6)C(=O)N(c6cccc(C#C)c6)C7=O)cc5)cc4)c(-c4ccccc4)c3-c3ccccc3)C2=O)c1 | GI50 | 23.1 µM (inactive) |
| CCN(CC)C(=O)CC12CCCCC1=Nc1ccccc12 (stereo not drawn) | GI50 | > 100 µM (inactive) |

Now examine the next entry.
The recorded GI50 for CNC(=O)ON(C(C)=O)C(=O)NC [CARACEMIDE] is 112 µM (inactive)

* * *

# System: OVCAR-4
# EXPERIMENTAL_PROTOCOL: NCI tumour cell line growth inhibition, 48 h
The source made the active and inactive calls. Rule as the data show it: active = GI50 up to about 1.1 µM and inactive = higher.
Use one of these outcomes when replying: active, inactive

| COMPOUND | EXPERIMENTAL_SYSTEM | CLASS_ASSIGNMENT |
| --- | --- | --- |
| CCOC(=O)/C(=C\c1ccc(N(CCC#N)CCC#N)cc1)NC(=O)c1cc([N+](=O)[O-])ccc1Cl | OVCAR-4 | inactive |
| CCOC(=O)C1C(c2ccc([N+](=O)[O-])cc2)NC(c2ccc([N+](=O)[O-])cc2)C(C(=O)OC)S1(=O)=O (configuration not stated) | OVCAR-4 | inactive |
| Cc1ccc(S(=O)(=O)SC(C)(C)C)cc1 | OVCAR-4 | inactive |

Tell me the recorded outcome of this test for COc1ccc2nc3ccccc3c(NCCCCCN(CCCl)CCCl)c2c1 .
active

Tell me the recorded outcome of this test for COC1OC2COC(C)(C)OC2C(OC(C)=O)C1NC(=O)N(CCCl)N=O (configuration not stated) .
inactive

Tell me the recorded outcome of this test for CCOc1ccc2[nH]c3c(C)c4cc[n+](C)cc4c(C)c3c2c1 .
inactive

Tell me the recorded outcome of this test for CCN(CC)C(=O)CC12CCCCC1=Nc1ccccc12 (configuration not stated) .
inactive

Tell me the recorded outcome of this test for O=C1CC(NC(=O)C(F)(F)F)c2c(Br)sc(N3CCC(c4ccccc4)CC3)c21 (configuration not stated) .
inactive

Tell me the recorded outcome of this test for CCc1n[nH]c(=O)n1N=C(c1ccccc1)c1ccccc1 .
inactive

Tell me the recorded outcome of this test for CCC(/C=C/c1ccccc1)=N\N=C(\C=C\c1ccccc1)CC .
inactive

Tell me the recorded outcome of this test for N=S(=O)(c1ccccc1)c1ccccc1[N+](=O)[O-] (configuration not stated) .
inactive

* * *

# Tested on: UO-31
# EXPERIMENTAL_PROTOCOL: NCI tumour cell line growth inhibition, 48 h
Active and inactive are the calls of the source. No stated cut-off is given here; in the data, active = GI50 up to about 1.1 µM and inactive = higher.
OUTCOME_MEASURE: GI50

| COMPOUND | EXPERIMENTAL_SYSTEM | GI50 |
| --- | --- | --- |
| COc1cc2c(c3c1c(=O)c1ccccc1n3C)C=CC(C)(C)O2 | UO-31 | 49.9 µM (inactive) |
| CC(C)=CC(=O)N(C)C1C2CN3CCC(O2)C13 (stereo not given) | UO-31 | > 100 µM (inactive) |
| O=C(O)c1cc2ccccc2c(/N=N/c2c([N+](=O)[O-])cc([N+](=O)[O-])cc2S(=O)(=O)O)c1O | UO-31 | > 100 µM (inactive) |
| Cc1cn([C@@H]2C[C@](C)(CO)N(C)O2)c(=O)[nH]c1=O | UO-31 | > 100 µM (inactive) |

Now examine the next entry.
The recorded GI50 for C=CC1(c2ccc(-c3ccccc3)cc2)OCCO1 is > 100 µM (inactive)

* * *

# System: RXF 393
# EXPERIMENTAL_PROTOCOL: NCI tumour cell line growth inhibition, 48 h
Activity calls are given as the source filed them. Cut-off read from the data, not from the text of the source: active = GI50 up to about 1.1 µM and inactive = higher.
Use one of these outcomes when replying: class 1 = active, class 0 = inactive

| MOLECULE | CLASS_ASSIGNMENT |
| --- | --- |
| NC(=S)N/N=C/c1ncccc1N | class 1 |

Tell me the recorded outcome of this test for C#CCCCCC#Cc1ccccc1C(=O)C=[N+]=[N-] .
class 0

Tell me the recorded outcome of this test for CCOC(=O)/C(=C\c1ccc(N(CCC#N)CCC#N)cc1)NC(=O)c1cc([N+](=O)[O-])ccc1Cl .
class 0

Tell me the recorded outcome of this test for CC(C)n1c2c([n+](C)c1/C=C/c1ccccc1)C(=O)c1ccccc1C2=O .
class 1

Tell me the recorded outcome of this test for COc1ccc(CCN2COc3ccc4ccc(=O)oc4c3C2)cc1OC .
class 0

Tell me the recorded outcome of this test for C/C(=N/NC(=S)N1CCCCC1)c1ccccc1O .
class 0

Tell me the recorded outcome of this test for O=c1cccccc1NCCCCCCCCNc1cccccc1=O .
class 0

Tell me the recorded outcome of this test for CC1CC[P+](c2ccccc2)(c2ccccc2)c2c1ccc1ccccc21 (configuration not stated) .
class 0

Tell me the recorded outcome of this test for COc1ccc(C(=O)CC(c2ccccc2)[C@H]2C(c3ccc(OC)cc3)=Nc3c(nc(SC)n(C)c3=O)NC2c2ccccc2)cc1 (some centres not stated) .
class 0

Tell me the recorded outcome of this test for CN(C)CC1=Nc2cccc3cccc(c23)N1 .
class 0

Tell me the recorded outcome of this test for O=c1c2ccccc2nc(-c2ccccc2)n1NC(=S)Nc1ccc(Cl)cc1 .
class 0

* * *

# maps each entry to its GI50
# System: KM12
# EXPERIMENTAL_PROTOCOL: NCI tumour cell line growth inhibition, 48 h
The source made the active and inactive calls. Rule as the data show it: active = GI50 up to about 1.1 µM and inactive = higher.

Here's what some known entries look like.
| COMPOUND | GI50 |
| --- | --- |
| O=[N+]([O-])c1ccc2nc(/C(=N/Nc3ccccc3)C(O)c3ccc(Cl)cc3Cl)c(O)nc2c1 (configuration not stated) | 49.3 µM (inactive) |
| O=C1C2Cc3ccccc3CN2C(=O)N1CCN1CCOCC1 (configuration not stated) | > 100 µM (inactive) |

The recorded GI50 for Cc1cc(C)c(-c2no/c(=N\S(=O)(=O)c3ccc(Cl)cc3)o2)c(C)c1 is 57.9 µM (inactive)

The recorded GI50 for ClC1(c2ccccc2)c2ccc(Br)cc2-c2cc(Br)ccc21 is 19.4 µM (inactive)

The recorded GI50 for CN(C)CCCNc1ccnc2c([N+](=O)[O-])cccc12 is 24.9 µM (inactive)

The recorded GI50 for CC[S+](C)c1ccc(-c2c3nc(c(-c4ccc([S+](C)CC)cc4)c4ccc([nH]4)c(-c4ccc([S+](C)CC)cc4)c4nc(c(-c5ccc([S+](C)CC)cc5)c5ccc2[nH]5)C=C4)C=C3)cc1.[O-][Cl+3]([O-])([O-])[O-].[O-][Cl+3]([O-])([O-])[O-].[O-][Cl+3]([O-])([O-])[O-].[O-][Cl+3]([O-])([O-])[O-] (configuration not stated) is 20.3 µM (inactive)

The recorded GI50 for Cn1c(N/N=C/c2ccccc2)nc(-c2ccc([N+](=O)[O-])cc2)c(C#N)c1=O is 26.9 µM (inactive)
